# targetOrSystem: GST-Rok-C97-191 (Bacillus subtilis subsp. subtilis str. …, UniProt O34857 97-191)
# Sequence: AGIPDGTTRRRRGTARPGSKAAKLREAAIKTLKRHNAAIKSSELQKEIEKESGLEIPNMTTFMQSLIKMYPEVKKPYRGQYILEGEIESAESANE
# protocolDetails: protein binding microarray; high values mean tight binding
# assaySetup: protein: recombinant; tags: GST (pTH5325, pDEST15-Magic modified); dsDNA, one strand shown
The full ranking holds about 33,000 sequences; the median of “e-score” is about -0.038, and the highest 2% start at about 0.33. Only a selection was taken, and the highest values are over-represented in it overall.
Please use Fulfilled whenever binding signal is not below 0.2 E-score, and Not fulfilled whenever it is.

sequenceRecord: ACCCGTTG
label: Not fulfilled
--
sequenceRecord: ACGCGCTC
label: Not fulfilled
--
sequenceRecord: CATGGAAC
label: Not fulfilled
--
sequenceRecord: ACAACTTG
label: Not fulfilled
--
sequenceRecord: GGCAAGTA
label: Not fulfilled
--
sequenceRecord: ACAAAAAA
label: Not fulfilled
--
sequenceRecord: CAAGTACA
label: Not fulfilled
--
sequenceRecord: TAAGTACA
label: Fulfilled
--
sequenceRecord: AAAGTACG
label: Not fulfilled
--
sequenceRecord: AACCAAAA
label: Not fulfilled
--
sequenceRecord: AGCTTTGA
label: Not fulfilled
--
sequenceRecord: AAAGTACC
label: Fulfilled

====

# targetOrSystem: GST-Rok-C97-191 (Bacillus subtilis subsp. subtilis str. …, UniProt O34857 97-191)
# Sequence: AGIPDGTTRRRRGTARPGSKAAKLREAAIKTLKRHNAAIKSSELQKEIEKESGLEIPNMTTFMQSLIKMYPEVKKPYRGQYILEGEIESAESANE
# protocolDetails: protein binding microarray; Rok is a gene silencer of Bacillus subtilis; high values mean tight binding
# assaySetup: protein: recombinant; tags: GST (pTH5325, pDEST15-Magic modified); dsDNA, one strand shown
Whole data set: some 33,000 sequences, median “e-score” near -0.038, cut for the highest 2% near 0.33. Many of the other results were omitted from the sample, so the highest values are more common in it than they were.
Just so you know, the groups by binding signal go like this: b0 = under 0.002 E-score, b1 = from 0.002 E-score up to 0.3 E-score, b2 = 0.3 E-score and over

sequenceRecord: AAGACCAA
targetOrSystem: GST-Rok-C97-191 (Bacillus subtilis subsp. subtilis str. …, UniProt O34857 97-191)
label: b0

sequenceRecord: ATTTCTAG
targetOrSystem: GST-Rok-C97-191 (Bacillus subtilis subsp. subtilis str. …, UniProt O34857 97-191)
label: b2

sequenceRecord: AAACCTTC
targetOrSystem: GST-Rok-C97-191 (Bacillus subtilis subsp. subtilis str. …, UniProt O34857 97-191)
label: b1

sequenceRecord: ACTATATC
targetOrSystem: GST-Rok-C97-191 (Bacillus subtilis subsp. subtilis str. …, UniProt O34857 97-191)
label: b1

sequenceRecord: ACTAATGC
targetOrSystem: GST-Rok-C97-191 (Bacillus subtilis subsp. subtilis str. …, UniProt O34857 97-191)
label: b1

sequenceRecord: TAATAATA
targetOrSystem: GST-Rok-C97-191 (Bacillus subtilis subsp. subtilis str. …, UniProt O34857 97-191)
label: b2

sequenceRecord: ACTATATA
targetOrSystem: GST-Rok-C97-191 (Bacillus subtilis subsp. subtilis str. …, UniProt O34857 97-191)
label: b2

sequenceRecord: AGATTGTG
targetOrSystem: GST-Rok-C97-191 (Bacillus subtilis subsp. subtilis str. …, UniProt O34857 97-191)
label: b1

sequenceRecord: ATTTCTTC
targetOrSystem: GST-Rok-C97-191 (Bacillus subtilis subsp. subtilis str. …, UniProt O34857 97-191)
label: b1

sequenceRecord: CTTTCTAA
targetOrSystem: GST-Rok-C97-191 (Bacillus subtilis subsp. subtilis str. …, UniProt O34857 97-191)
label: b1

sequenceRecord: GATAAGAA
targetOrSystem: GST-Rok-C97-191 (Bacillus subtilis subsp. subtilis str. …, UniProt O34857 97-191)
label: b1

sequenceRecord: GCTATATA
targetOrSystem: GST-Rok-C97-191 (Bacillus subtilis subsp. subtilis str. …, UniProt O34857 97-191)
label: b2

sequenceRecord: AGGTCCCG
targetOrSystem: GST-Rok-C97-191 (Bacillus subtilis subsp. subtilis str. …, UniProt O34857 97-191)
label: b0

sequenceRecord: ATTTCTAA
targetOrSystem: GST-Rok-C97-191 (Bacillus subtilis subsp. subtilis str. …, UniProt O34857 97-191)
label: b2

sequenceRecord: ATTTCTAC
targetOrSystem: GST-Rok-C97-191 (Bacillus subtilis subsp. subtilis str. …, UniProt O34857 97-191)
label: b2

sequenceRecord: ATGCCCGA
targetOrSystem: GST-Rok-C97-191 (Bacillus subtilis subsp. subtilis str. …, UniProt O34857 97-191)
label: b0

sequenceRecord: ATTGGGGA
targetOrSystem: GST-Rok-C97-191 (Bacillus subtilis subsp. subtilis str. …, UniProt O34857 97-191)
label: b0

sequenceRecord: AGTTCTAG
targetOrSystem: GST-Rok-C97-191 (Bacillus subtilis subsp. subtilis str. …, UniProt O34857 97-191)
label: b1

sequenceRecord: AACGCCAG
targetOrSystem: GST-Rok-C97-191 (Bacillus subtilis subsp. subtilis str. …, UniProt O34857 97-191)
label: b0

sequenceRecord: ATTCGCGG
targetOrSystem: GST-Rok-C97-191 (Bacillus subtilis subsp. subtilis str. …, UniProt O34857 97-191)
label: b0

sequenceRecord: ACCACCAT
targetOrSystem: GST-Rok-C97-191 (Bacillus subtilis subsp. subtilis str. …, UniProt O34857 97-191)
label: b0
